Origin of measurements: patent US7494997B2

Target: E255K mutant BCR-ABL (Homo sapiens, UniProt P00519, E255K)
Construct: expressed in transfected cells; host or cells: 293T cells (ATCC), Lipofectamine transfection; the other entry of the earlier key: BCR (P11274, Breakpoint cluster region protein)
Sequence (P00519 28-1130 E255K limits assumed): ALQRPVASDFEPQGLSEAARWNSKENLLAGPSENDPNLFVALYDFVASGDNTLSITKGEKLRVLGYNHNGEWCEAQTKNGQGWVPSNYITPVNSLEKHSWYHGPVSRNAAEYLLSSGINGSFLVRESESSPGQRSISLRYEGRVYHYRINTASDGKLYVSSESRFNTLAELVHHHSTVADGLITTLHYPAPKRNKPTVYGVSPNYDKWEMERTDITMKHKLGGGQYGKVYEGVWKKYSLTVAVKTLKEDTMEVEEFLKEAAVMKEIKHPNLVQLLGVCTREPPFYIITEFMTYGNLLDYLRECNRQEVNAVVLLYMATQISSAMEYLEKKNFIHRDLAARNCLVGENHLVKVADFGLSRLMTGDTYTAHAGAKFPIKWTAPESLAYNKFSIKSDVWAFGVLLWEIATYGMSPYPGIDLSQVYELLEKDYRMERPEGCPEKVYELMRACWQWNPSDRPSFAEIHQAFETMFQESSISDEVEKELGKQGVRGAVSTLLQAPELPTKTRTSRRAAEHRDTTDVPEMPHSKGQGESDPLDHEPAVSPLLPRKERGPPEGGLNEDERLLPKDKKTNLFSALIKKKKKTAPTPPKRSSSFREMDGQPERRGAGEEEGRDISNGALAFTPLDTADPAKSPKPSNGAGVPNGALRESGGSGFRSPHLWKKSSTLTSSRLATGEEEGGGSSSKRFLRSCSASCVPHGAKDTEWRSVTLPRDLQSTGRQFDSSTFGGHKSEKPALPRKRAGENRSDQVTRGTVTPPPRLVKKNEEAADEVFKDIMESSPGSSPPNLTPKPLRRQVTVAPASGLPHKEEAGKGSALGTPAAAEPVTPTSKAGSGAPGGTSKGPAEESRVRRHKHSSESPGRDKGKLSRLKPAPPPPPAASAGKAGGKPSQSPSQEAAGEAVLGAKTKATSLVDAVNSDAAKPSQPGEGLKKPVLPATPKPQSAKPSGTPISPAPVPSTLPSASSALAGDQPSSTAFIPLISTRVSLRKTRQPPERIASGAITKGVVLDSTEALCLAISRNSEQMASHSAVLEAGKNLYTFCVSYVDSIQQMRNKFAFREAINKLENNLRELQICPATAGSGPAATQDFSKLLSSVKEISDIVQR
Assay: Self-phosphorylation inhibitory effect on mutant (E255K) BCR-ABL in transfected 293T cells (Western blot, PY99); further: key: +++: almost perfectly inhibition of phosphorylation; ++: around half of inhibition; +: week inhibition; −: no inhibition
Format: cell-based
Details: 1 μM, 2 hours
Procedure: The cells were seeded in an amount of 5 ml in a Poly-L-Lysin coated 6 cm dish so as to give 1.2×10^6 cells/well. […] The concentration of protein was measured according to BCA method. The samples of cell lysate containing […] of protein was analyzed by SDS-PAGE polyacrylamide. […] After the nylon filter was washed with PBS four times, self-phosphorylation of p210 BCR-ABL was detected with alkaline phosphatase color developing reagent. […]
Quantity: Self-phosphorylation inhibitory effect on E255K mutant BCR-ABL

Cc1ccc(NC(=O)c2ccc(CN3CCN(C)CC3)c(I)c2)cc1Nc1nccc(-c2cccnc2)n1 [Example 2] :: +
Cc1ccc(NC(=O)c2ccc(CN3CCN(C)CC3)c(Cl)c2)cc1Nc1nccc(-c2cccnc2)n1 [Example 3] :: −
Cc1ccc(NC(=O)c2ccc(CN3CCN(C)CC3)c(C(F)(F)F)c2)cc1Nc1nccc(-c2cncc(Br)c2)n1 [Example 10] :: ++
Cc1ccc(NC(=O)c2ccc(CN3CCN(C)CC3)c(Br)c2)cc1Nc1nccc(-c2cncc(Br)c2)n1 [Example 9] :: +
Cc1ccc(NC(=O)c2ccc(CN3CCN(C)CC3)c(Br)c2)cc1Nc1nccc(-c2cnccn2)n1 [Example 7] :: −

Could you now look at the following compound, please?
input: So what's the measured Self-phosphorylation inhibitory effect on E255K mutant BCR-ABL for this one? Cc1ccc(NC(=O)c2ccc(CN3CCN(C)CC3)c(Br)c2)cc1Nc1nccc(-c2cncnc2)n1 [Example 13]
output: ++
